system: 3D7; assay: qHTS profiling for inhibitors of Plasmodium falciparum proliferation (AID 504749); also: nearly all actives have a fitted effect of over 60% in size; details: P. falciparum in erythrocytes, SYBR Green DNA, 72 h; series mostly up to 28.7 µM
Inconclusive results are not listed. Activity calls are given as the source filed them. Calls follow the shape of the dose curve; as a rule, active = well fitted inhibition curve with a large enough effect; inconclusive = small, poorly fitted or top-dose-only effect; inactive = flat fitted curve, though single readings scatter.
// allowed return values: YES for active, NO for inactive

{"columns": ["COMPOUND", "LABEL"],
 "data": [
  ["Cc1cc(-c2ccc(N=Nc3ccc4c(S(=O)(=O)O)cc(S(=O)(=O)O)c(N)c4c3O)c(C)c2)ccc1N=Nc1ccc2c(S(=O)(=O)O)cc(S(=O)(=O)O)c(N)c2c1O", "NO"],
  ["CN=C1C=CC(=C(c2ccc(N(C)C)cc2)c2ccc(N(C)C)cc2)C=C1", "YES"],
  ["Cc1cc(C)c(NC(=O)C[C@H](CC(=O)O)c2cccc3ccccc23)c(C(=O)N2CCC3(CCCC3)CC2)c1", "NO"],
  ["Cc1cc(C(=O)NCCc2ccc(S(=O)(=O)NC(=O)NN3CCCCCC3)cc2)no1", "NO"],
  ["O=C(NCCNCC(O)COc1ccc(O)cc1)N1CCOCC1 (stereo not given)", "NO"],
  ["CCCc1ccc(C(=O)O)cc1", "NO"]
]}

What classification did "N#Cc1ccc2c(c1)N(CCCN1CCC(O)CC1)c1ccccc1S2" end up with in this test? NO

Where do these numbers come from? They come from PubChem BioAssay (NCATS).
